target.system: Testis-specific serine/threonine-protein kinase 2 (Homo sapiens);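 note: values are mean inhibition of TSSK2 activity from the GSK PKIS profiling panel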
condition.summary: at 0.1 µM
Reported inhibition values for the following compounds.
Record the value in %, omitting the unit from your answer.

Please review the entries below; each comes with its answer.
1. CS(=O)(=O)CCNCc1ccc(-c2ccc3ncnc(Nc4ccc(OCc5ccccc5)c(C(F)(F)F)c4)c3c2)o1 | 0.53
2. NC(=O)c1sc(-n2cnc3ccc(C(F)(F)F)cc32)cc1OCc1ccccc1Br | 2.62
3. Cc1cccc2c1NC(=O)/C2=N\Nc1ccc(S(N)(=O)=O)cc1 | 0.81
4. COc1ccc(-c2nn3ncccc3c2-c2ccnc(Nc3ccc4c(c3)OCCO4)n2)cc1 | 1.42
5. CCNC(=O)O[C@H]1CN[C@H](C#Cc2cc3ncnc(Nc4ccc(OCc5cccc(F)c5)c(Cl)c4)c3s2)C1 | 3.47
6. Fc1ccc(-c2cc(-c3c[nH]nc3-c3ccccn3)ccn2)cc1 | 4.38
7. COc1ccc(-c2oc3ncnc(N)c3c2-c2ccc(NC(=O)Nc3cc(C(F)(F)F)ccc3F)cc2)cc1 | 3.63
8. CCc1nn2ncccc2c1-c1ccnc(NC2CC2)n1 | 1.82

Moving on to the next compound.
Noted for `NS(=O)(=O)c1ccc(N/N=C2\C(=O)Nc3ccc4ncccc4c32)cc1` : its inhibition reads 0.69
